Tested on: OVCAR-4 ovarian
Assay: NCI-60 one-dose screen, 48 h (100 = growth as untreated, 0 = no growth, -100 = all killed)
Conditions: 10 µM unless noted
The panel holds about 83,000 compounds, 20% with a hit somewhere; the sample as a whole holds those more often. Active and inactive are the calls of the source. The calls were made as follows: active = growth percent below 10; inactive = the rest.
Observed Property: growth

Please review the entries below; each comes with its answer.
response.value for `COc1ccc2[nH]c(O)c(N=Nc3nc(-c4ccc(Br)cc4)cs3)c2c1` (field: growth) = -69.6% (active)

response.value for O=C(O)CC1S/C(=N/N=C/c2nc3ccccc3s2)NC1=O (stereo not given) (field: growth) = 82.1% (inactive)

response.value for CCCCNc1ccc2c3c(cccc13)C(=O)N(NCC(O)COc1ccc3c(C)cc(=O)oc3c1)C2=O (stereo not given) (field: growth) = 74.6% (inactive)

response.value for COc1ccc(NC(=O)NN2C(=O)c3ccccc3N(C)C2c2ccc(OC)cc2)cc1 (stereo not given) (field: growth) = 96.7% (inactive)

Next:
response.value for `COc1ccc(-c2cc(-c3ccccc3)c(C#N)c(=O)[nH]2)cc1S(N)(=O)=O` (field: growth) = 102% (inactive)

====

Tested on: NCI/ADR-RES ovarian
Test: NCI-60 one-dose screen, 48 h (100 = growth as untreated, 0 = no growth, -100 = all killed)
Conditions: 10 µM unless noted
About 83,000 compounds went through this panel and 20% of them were active in at least one assay; those are over-represented in the sample as a whole.
Under this convention, fulfilled denotes growth strictly below -20% and not fulfilled denotes growth at or above -20%.

# example entries with known answers
Here's an entry: `Cn1cc(-c2cc3nc(-c4c[nH]c5ccccc45)cc(N)n3n2)c2ccccc21` . Is its growth below -20%?
fulfilled

Here's an entry: O=C(c1ccc(Cl)cc1)C1[C@H](c2ccccc2Cl)[C@@H](c2ccccc2)NC12C(=O)Nc1ccc(Cl)cc12 (some centres not stated) . Is its growth below -20%?
fulfilled

Here's an entry: `O=C(NN1C(=O)/C(=C/C=C/c2ccc([N+](=O)[O-])o2)SC1=S)c1ccc([N+](=O)[O-])cc1` . Is its growth below -20%?
fulfilled

Here's an entry: `CN1CCN(C(=O)Oc2cc3c(c4ccccc24)[C@H](CCl)CN3C(=O)c2cc3cc(OCCCN4CCC4)ccc3[nH]2)[C@@H]2CSSC[C@H]21` . Is its growth below -20%?
fulfilled

Here's an entry: `COc1ccc(-c2nc3ccc(-c4nnc(SCc5ccccc5)o4)cc3[nH]2)cc1OC` . Is its growth below -20%?
not fulfilled

Here's an entry: Cc1cc(C2(c3cc(C)c(OCC(O)CNc4c(C)n(C)n(-c5ccccc5)c4=O)cc3C(C)C)OC(=O)c3ccccc32)c(C(C)C)cc1OCC(O)CNc1c(C)n(C)n(-c2ccccc2)c1=O (configuration not stated) . Is its growth below -20%?
not fulfilled

Turning now to a further record.
Here's an entry: O=S(=O)(c1nc(-c2ccc(Br)cc2)oc1-c1ccc(Cl)cc1)N1CCCC(O)C1 (configuration not stated) . Is its growth below -20%?
not fulfilled

====

Tested on: MOLT-4 leukemia
Assay: NCI-60 one-dose screen, 48 h
Settings: 10 µM unless noted
About 83,000 compounds went through this panel and 20% of them were active in at least one assay; those are over-represented in the sample as a whole. Active and inactive are the calls of the source. The calls were made as follows: active = growth percent below 10; inactive = the rest.
Write down one outcome, taken from active, inactive

# example entries with known answers
How was `COc1cc(/C=C/C(=O)c2cnn(-c3cc(=O)[nH]c4ccc(C)cc34)c2C)cc(OC)c1OC` classified in this test?
active

How was `COc1sc(/C=N/NC(=O)c2[nH]c3ccc(Br)cc3c2-c2ccccc2)cc1Br` classified in this test?
active

How was `COc1ccc(-c2cc(-c3ccccc3)c(C#N)c(=O)[nH]2)cc1S(N)(=O)=O` classified in this test?
inactive

Next:
How was COc1cc(C2CC(c3ccc(F)cc3)=Nc3c(N)nc(N)nc3N2)ccc1Oc1nc(Nc2ccc(F)cc2)nc(N(C)C)n1 (stereo unspecified) classified in this test?
active

How was `CC[C@@]12CC(C(=O)OC)=C3Nc4cc5c(cc4[C@@]34CCN(C[C@H]3O[C@H]31)[C@@H]24)[C@@H]1[C@H](O5)[C@@H](O)[C@@]2(CC)CC(C(=O)OC)=C3Nc4cc(O)ccc4[C@@]34CCN1[C@@H]24` classified in this test?
active

How was COc1c(F)ccc(C(=O)Nc2ccc3nc(NC(=O)C4CCCN(S(=O)(=O)c5ccc(C(C)(C)C)cc5)C4)sc3c2)c1F (stereo unspecified) classified in this test?
inactive

How was O=C(c1ccc(Cl)cc1)C1[C@H](c2ccccc2Cl)[C@@H](c2ccccc2)NC12C(=O)Nc1ccccc12 (stereo partly specified) classified in this test?
active

How was `CC1=C(C)C(=O)C(NCCN2CCOCC2)=C(Br)C1=O` classified in this test?
active

How was `COC(=O)c1c(C(=O)OC)c2c3ccccc3c3ccccc3n2c1C(=O)C(C)(C)C` classified in this test?
inactive

How was `C/C(=N/O)c1ccc(NC(=O)CSc2nnc(-c3ccc4nc(-c5ccc(Cl)cc5)[nH]c4c3)o2)cc1` classified in this test?
inactive

How was `COc1cc(-c2ccc3ncnc(N4CCc5ccc(Cl)cc54)c3c2)cnc1Cl` classified in this test?
active

How was `N#C/C(=C1/C(=O)Nc2ccccc21)c1nnc(NC(=O)c2ccc(-n3c(=O)[nH]c4ccccc4c3=O)cc2)s1` classified in this test?
active

====

System: SK-MEL-5 melanoma
Assay: NCI-60 one-dose screen, 48 h (100 = growth as untreated, 0 = no growth, -100 = all killed)
Conditions: 10 µM unless noted
Description: Growth inhibition of the SK-MEL-5 human tumor cell line is measured as a screen for anti-cancer activity. Cells are grown in 96 well plates and exposed to the test compound for 48 hours. Compounds are tested at a single concentration, which is 10^-5 M for most compounds. The reported endpoint is percent growth (GI% or GIPRCNT), where numbers from 0 - 100% represent growth inhibition, and numbers from -100% - 0 represent cell death. For example, a value of 40 represents 60% growth inhibition. […]
About 83,000 compounds went through this panel and 20% of them were active in at least one assay; those are over-represented in the sample as a whole.
Binary classification by growth, with 60% as an inclusive lower bound for Y; all other cases are N.

# bool: growth of `COc1ccc2[nH]c(=O)c(CSc3ccccc3Nc3nccc(-c4ccc(C(F)(F)F)cc4)n3)cc2c1` >= 60%
N

# bool: growth of `COc1ccc(C(=O)C[n+]2cccc3c4ccccc4ccc32)cc1` >= 60%
N

# bool: growth of `COc1ccc(-c2cc(C(=O)Oc3ccc(C=O)cc3OC)nn2-c2ccc(S(C)(=O)=O)cc2)cc1` >= 60%
Y

# bool: growth of `CS(=O)(=O)Nc1cc(-c2ccc3ncnc(N4CCc5cc(F)c(Cl)cc54)c3c2)cnc1Cl` >= 60%
N

# bool: growth of `O=C(NNC(=O)c1ccc(OCc2nc3ccc(Cl)cc3[nH]2)cc1)Nc1ccc(Cl)c(Cl)c1` >= 60%
N

# bool: growth of `Cc1ccc(Nc2nnc(-c3c[nH]c4ccccc34)o2)c(C)c1` >= 60%
N

Next:
# bool: growth of `Cc1[nH]nc2ccc3nc(-c4cn[nH]c4C(F)(F)F)c4c(c3c12)CCCC4` >= 60%
N

# bool: growth of `O=C(NC(=S)N1CCN(c2ncnc3c2cnn3-c2ccccc2)CC1)c1ccc(F)cc1` >= 60%
N

# bool: growth of `Cc1nn(-c2ccccc2)c2nc(C)n(CC(=O)N/N=C/c3ccccc3O)c(=O)c12` >= 60%
N

# bool: growth of `O=C1/C(=C/c2cccc3c2OCO3)Cc2c(F)cc(Br)cc21` >= 60%
Y

====

System: UACC-257 melanoma
Assay: NCI-60 one-dose screen, 48 h (100 = growth as untreated, 0 = no growth, -100 = all killed)
Conditions: 10 µM unless noted
Compounds without any hit were thinned out: in the full panel of roughly 83,000, 20% have a hit.
Listed compounds paired with reported growth
Express it in %; write the number only.

Please review the entries below; each comes with its answer.
response.value for `COc1cc(CNC(=O)C[C@H](C)CCC=C(C)C)ccc1OCc1cn(-c2cccc(C(F)(F)F)c2)nn1` (field: growth) = 104

response.value for `Cc1ccc(N=Nc2c(N)nn3c(-c4cc5cc(Br)ccc5oc4=O)ccnc23)cc1` (field: growth) = 121

response.value for `O=C(N/N=C/c1ccoc1)c1[nH]c2ccc(Br)cc2c1-c1ccccc1` (field: growth) = -78.1

response.value for `Nc1nnc(-c2cncc(Br)c2)c(-c2c[nH]c3ccc(Cl)cc23)n1` (field: growth) = 108

response.value for `Cc1nn(-c2ccccc2)c2nc(C)n(CC(=O)N/N=C/c3ccccc3O)c(=O)c12` (field: growth) = 2.59

response.value for `N#Cc1cc(-c2ccnc(Nc3ccc(N4CCN(C5COC5)CC4)cc3)n2)ccc1N1CCCC1` (field: growth) = 74.4

response.value for `Cn1cc(-c2cc(N)n3nc(-c4c[nH]c5ccc(Cl)cc45)cc3n2)c2cccnc21` (field: growth) = -85.5

response.value for `C/C(=N\Nc1ccc(S(N)(=O)=O)cc1)c1cnn(-c2cc(=O)[nH]c3ccc(Br)cc23)c1C` (field: growth) = 66.3

Next:
response.value for `C/C(=N\Nc1ccc(C(=O)O)cc1)c1cnn(-c2cc(=O)[nH]c3ccc(C)cc23)c1C` (field: growth) = 106

response.value for `N#Cc1c(-c2ccc(F)cc2)nc(SCc2ccccc2)nc1N1CCNCC1` (field: growth) = -93.2
